- Measured on: T1, Formyl peptide receptor 1 (human, UniProt P21462 1-350)
- T1 chain: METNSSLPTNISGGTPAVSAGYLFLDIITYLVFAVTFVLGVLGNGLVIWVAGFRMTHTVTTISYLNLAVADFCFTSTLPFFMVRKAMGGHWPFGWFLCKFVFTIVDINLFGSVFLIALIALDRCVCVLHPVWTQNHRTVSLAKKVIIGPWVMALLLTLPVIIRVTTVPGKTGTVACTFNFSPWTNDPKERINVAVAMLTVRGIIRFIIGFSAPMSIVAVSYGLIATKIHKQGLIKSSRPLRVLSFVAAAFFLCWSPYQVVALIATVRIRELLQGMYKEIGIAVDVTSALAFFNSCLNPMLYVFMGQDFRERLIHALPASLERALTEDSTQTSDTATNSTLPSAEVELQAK
Ends that are not written are not given here.
Reported endpoint: Kd (nM)
Quick reminder: number only, in nM, skip the unit.

Sample MYVKWPWYVWLL (also: fluorescently labeled) [fluorescently labeled N-terminally truncated HCoV-HKU-1 MPR peptide CV2∗] ; Kd observed: 66.9
